Where do the numbers come from? From paper PMC6321475.

- ASSAYED SYSTEM: acetylcholinesterase (AChE) (Homo sapiens, UniProt P22303)
- Sequence (P22303 32-614): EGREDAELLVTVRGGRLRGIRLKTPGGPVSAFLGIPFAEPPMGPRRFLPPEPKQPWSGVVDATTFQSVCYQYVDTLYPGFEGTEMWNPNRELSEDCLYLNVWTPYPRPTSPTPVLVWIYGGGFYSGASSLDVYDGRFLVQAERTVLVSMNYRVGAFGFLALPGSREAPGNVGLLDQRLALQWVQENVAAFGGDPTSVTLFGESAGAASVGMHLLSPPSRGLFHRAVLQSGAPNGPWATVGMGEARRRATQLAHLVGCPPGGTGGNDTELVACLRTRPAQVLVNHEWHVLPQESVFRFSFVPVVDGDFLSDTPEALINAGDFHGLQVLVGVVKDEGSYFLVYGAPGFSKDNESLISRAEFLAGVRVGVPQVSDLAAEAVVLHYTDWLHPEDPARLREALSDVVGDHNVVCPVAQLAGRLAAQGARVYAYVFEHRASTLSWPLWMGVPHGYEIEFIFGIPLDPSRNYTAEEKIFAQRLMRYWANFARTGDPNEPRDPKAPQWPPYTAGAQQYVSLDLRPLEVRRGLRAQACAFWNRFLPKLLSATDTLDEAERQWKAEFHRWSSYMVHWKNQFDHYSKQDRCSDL
- TEST DESCRIPTION: biochemical
- Assay type: biochemical
The label is fulfilled for IC50 below 10 µM and not fulfilled for IC50 equal to or exceeding 10 µM.

1. COc1cc2oc(-c3ccccc3)c(O)c(=O)c2cc1I: fulfilled
2. O=C(/C=C/c1ccc(Cl)cc1)c1cc(I)c(Br)cc1O: not fulfilled
3. COc1ccc(/C=C/C(=O)c2cc(I)c(Br)cc2O)cc1: not fulfilled
4. O=c1c(O)c(-c2ccc(F)cc2)oc2cc(Br)c(I)cc12: not fulfilled
5. COc1ccc(/C=C/C(=O)c2cc(I)c(F)cc2O)cc1: not fulfilled
6. O=C(/C=C/c1ccccc1)c1cc(I)c(Cl)cc1O: not fulfilled
